Each record here notes measured IC50.
# Test system: HCC827
# test: Tumor cell proliferation inhibition (CellTiter-Meiluncell Luminescent Cell Viability Assay)
# test_parameters: Homo sapiens, 96 hours, Table I-1, designed based on the ALK inhibitors, read-out: Inhibitory activity (IC50, nM) HCC827
parameter_measured: IC50

C[C@H]1Oc2cc(cnc2N)-c2c(nn(C)c2C#N)CN(C)C(=O)c2ccc(F)cc21 [lorlatinib, reference compound]: > 10000 nM
CCc1cc2c(cc1N1CCC(N3CCN(Cc4ccc5c(c4)C(=S)N(C4CCC(=O)NC4=O)C5)CC3)CC1)C(C)(C)c1[nH]c3cc(C#N)ccc3c1C2=O (centres unmarked): 500 to 1000 nM

----------
# subject_of_test: human Cereblon WT GST-tagged protein (Homo sapiens, UniProt Q96SW2)
# Construct: purchased CISBIO 64BDCRBNPEH
# Sequence (Q96SW2 whole entry): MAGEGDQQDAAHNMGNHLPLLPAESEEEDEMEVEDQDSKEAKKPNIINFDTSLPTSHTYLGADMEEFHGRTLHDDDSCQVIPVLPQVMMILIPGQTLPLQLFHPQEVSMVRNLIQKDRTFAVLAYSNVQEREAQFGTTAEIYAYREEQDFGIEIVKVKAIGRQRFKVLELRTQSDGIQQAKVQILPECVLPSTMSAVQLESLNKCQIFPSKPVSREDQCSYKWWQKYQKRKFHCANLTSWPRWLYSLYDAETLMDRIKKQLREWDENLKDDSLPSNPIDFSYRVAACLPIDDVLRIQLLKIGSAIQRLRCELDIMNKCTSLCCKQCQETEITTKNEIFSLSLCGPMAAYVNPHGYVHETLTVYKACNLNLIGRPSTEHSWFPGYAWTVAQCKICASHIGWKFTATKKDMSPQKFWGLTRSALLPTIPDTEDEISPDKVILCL
# test: CRBN-binding affinity, HTRF (CEREBLON BINDING kit)
# test_parameters: read-out: Inhibition Rate at 0.5 µM (%)
Each record here notes measured inhibition at 0.5 µM.
parameter_measured: inhibition at 0.5 µM

O=C1CCC(N2Cc3cc(CN4CCN(c5ccc6c(c5)nc(NC(=O)c5cccc(C(F)(F)F)c5)n6[C@H]5CC[C@@H](CO)CC5)CC4)ccc3C2=S)C(=O)N1 (relative stereo) [GT-05293]: 40 to 53%
CC1(C)CCC(c2ccc(Cl)cc2)=C(CN2CCN(c3ccc(C(=O)NS(=O)(=O)c4ccc(N[C@H](CCN5CC6CCC(C5)N6Cc5ccc6c(c5)CN(C5CCC(=O)NC5=O)C6=S)CSc5ccccc5)c(S(=O)(=O)C(F)(F)F)c4)cc3)CC2)C1 (stereo partly drawn) [GT-09416]: 80 to 100%
Cn1ncc(-c2nc(NC3CCN(Cc4ccc5c(c4)CN(C4CCC(=O)NC4=O)C5=S)CC3)ncc2Cl)c1CC1CC1 (stereo not drawn) [GT-08682]: 60 to 80%
Cn1ncc(-c2nc(NC3CCN(Cc4cccc5c4CN(C4CCC(=O)NC4=O)C5=S)CC3)ncc2Cl)c1CC1CC1 (stereo not drawn) [GT-08686]: 53 to 60%
C[C@@H]1CNC(=O)c2cc3ccc(C(=O)Nc4cnn(Cc5ccc(N6CCN(Cc7ccc8c(c7)CN(C7CCC(=O)NC7=O)C8=S)CC6)cc5)c4)nc3n21 (stereo partly drawn) [GT-08777]: 80 to 100%
COC1CCN(c2nccc(Nc3cc4c(cn3)c(N3CCN(Cc5ccc6c(c5)C(=S)N(C5CCC(=O)NC5=O)C6)CC3)nn4C(C)C)n2)CC1 (stereo not drawn) [GT-08763]: 30 to 40%
Cc1cc(S(=O)(=O)N2CCN(Cc3ccc4c(c3)CN(C3CCC(=O)NC3=O)C4=S)CC2)ccc1Nc1ncc(Br)c(Nc2cccc(F)c2C(N)=O)n1 (stereo not drawn) [GT-08714]: 53 to 60%
CC(C)(O)c1cc2nc(C3CCN(Cc4ccc5c(c4)CN(C4CCC(=O)NC4=O)C5=S)CC3)oc2cc1NC(=O)c1cccc(C(F)(F)F)n1 (stereo not drawn) [GT-05320]: 80 to 100%
Cc1ccc(C(=O)Nc2ccc(CN3CCN(Cc4cccc5c4CN(C4CCC(=O)NC4=O)C5=S)CC3)c(C(F)(F)F)c2)cc1C#Cc1cnc2cccnn12 (stereo not drawn) [GT-08773]: 30 to 40%
N#CC1(CNc2nc(-c3cc(NC4CCN(Cc5ccc6c(c5)C(=S)N(C5CCC(=O)NC5=O)C6)CC4)ncc3Cl)cs2)CCOCC1 (stereo not drawn) [GT-08750]: 60 to 80%
COC1CCN(c2nccc(Nc3cc4c(cn3)c(N3CCN(Cc5cccc6c5CN(C5CCC(=O)NC5=O)C6=S)CC3)nn4C(C)C)n2)CC1 (stereo not drawn) [GT-08759]: 30 to 40%
Cc1cc(-c2nc(C(=O)Nc3cc4oc(N5CCN(Cc6cccc7c6CN(C6CCC(=O)NC6=O)C7=S)CC5)nc4nc3N3CC[C@@H](O)C3)co2)ccn1 (stereo partly drawn) [GT-05289]: 40 to 53%
